Reference source for all entries: patent US4731363A

Answer each item with its documented IC50.
# Target: thromboxane synthase (Human Platelet Microsomes) (Homo sapiens)
# Construct: Platelets were obtained from 320 ml of whole blood and resuspended in 5.0 ml of Krebs-Hensleit buffer; from tissue; host or cells: human platelets (microsomes, 110,000 g pellet)
# Sequence (P24557 1-533): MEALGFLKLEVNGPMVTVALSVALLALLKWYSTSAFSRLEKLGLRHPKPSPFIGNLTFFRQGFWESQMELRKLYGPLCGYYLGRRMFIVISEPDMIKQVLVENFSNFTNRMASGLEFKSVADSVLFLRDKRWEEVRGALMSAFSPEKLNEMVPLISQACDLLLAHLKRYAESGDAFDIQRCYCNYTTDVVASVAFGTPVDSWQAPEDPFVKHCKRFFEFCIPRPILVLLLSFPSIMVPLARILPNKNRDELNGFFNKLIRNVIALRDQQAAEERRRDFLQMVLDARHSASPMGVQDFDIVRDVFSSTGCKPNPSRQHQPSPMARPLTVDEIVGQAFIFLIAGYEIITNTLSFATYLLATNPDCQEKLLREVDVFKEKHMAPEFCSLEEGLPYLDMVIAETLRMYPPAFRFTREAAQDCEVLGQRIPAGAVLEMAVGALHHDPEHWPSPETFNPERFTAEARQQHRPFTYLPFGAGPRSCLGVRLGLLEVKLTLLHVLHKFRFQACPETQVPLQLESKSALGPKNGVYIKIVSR
# Test method notes: Thromboxane synthase inhibition, human platelet microsomes
# Format: biochemical
# Experimental setup: enzyme source H = Human Platelet Microsomes; read-out: IC50

// worked examples, IC50 included
CCOc1ccc(-n2ccnc2)cc1 [1-(4-ethoxyphenyl)-1H--imidazole]
~10 µM
CC(C)Oc1ccc(-n2ccnc2)cc1
~10 µM
OC[C@H]1O[C@@H](n2ccnc2)[C@H](O)[C@@H](O)[C@@H]1O [1-(beta-D-glucopyranosyl)-1H--imidazole]
10 to 100 µM
COc1ccc(-n2ccnc2)cc1 [1-(4-methoxyphenyl)-1H--imidazole]
10 to 100 µM
Oc1ccc(-n2ccnc2)cc1 [4-(1H--imidazol-1-yl)phenol, 4-(1H-imidazol-1-yl)phenol]
~1 µM
c1ccc(C(c2ccccc2)(c2ccccc2)n2ccnc2)cc1 [1-(triphenylmethyl)-1H--imidazole, 1-(triphenylmethyl)-1H-imidazole]
10 to 100 µM

Hey, can you go through the list below and give me IC50 for every item?
1. Oc1cccc(-n2ccnc2)c1 [3-(1H--imidazol-1-yl)phenol]
2. CC(=O)c1ccc(-n2ccnc2)cc1 [1-[4-(1H--imidazol-1-yl)phenyl]ethanone, 1-[4-(1H-imidazol-1-yl)phenyl]ethanone]

Response given:
1: 1 to 10 µM; 2: 1 to 10 µM

Provide the reported IC50 of each entry below, same order.
1. CCCCn1ccnc1 [1-butyl-1H--imidazole]
2. CC(C)c1[nH]c2ccccc2c1C(=O)c1cccnc1

Response given:
1: ~10 µM; 2: ~1 µM

----------
Provide the reported pIC50 of each item.
# Target: thromboxane synthase (Guinea Pig Lung Microsomes) (Cavia porcellus)
# Construct: The lungs were removed, freed of trachea and the majority of blood removed by rinsing the lungs with buffer; from tissue; host or cells: lungs of male guinea pigs (microsomes, 110,000 g pellet)
# Test method notes: biochemical
# Experimental setup: enzyme source G = Guinea Pig Lung Microsomes; read-out: IC50
pIC50: −log10 of the molar value.

Please report pIC50 for every entry that follows.
1. c1ccc(-c2ccncn2)cc1
2. Cn1ccnc1
3. S=C(n1ccnc1)n1ccnc1

Response given:
1. ~4.00
2. < 3.00
3. 4.00 to 5.00

----------
What pIC50 was measured for each of the following?
# Target: thromboxane synthase (Human Platelet Microsomes) (Homo sapiens, UniProt P24557)
# Construct: Platelets were obtained from 320 ml of whole blood and resuspended in 5.0 ml of Krebs-Hensleit buffer; from tissue; host or cells: human platelets (microsomes, 110,000 g pellet)
# Test method notes: Thromboxane synthase inhibition, human platelet microsomes
# Format: biochemical
# Experimental setup: IC50, enzyme source H = Human Platelet Microsomes
pIC50: −log10 of the molar value.

Clc1ccccc1C(c1ccccc1)(c1ccccc1)n1ccnc1 [reference compound]
4.00 to 5.00

Alright, here's another compound for you.
Lookup result for c1ccc(Cn2ccnc2)cc1 ; measured pIC50: 4.00 to 5.00

----------
Please go through the items and note down their IC50.
# Target: thromboxane synthase (Guinea Pig Lung Microsomes) (Cavia porcellus, UniProt H0UT36)
# Construct: The lungs were removed, freed of trachea and the majority of blood removed by rinsing the lungs with buffer; from tissue; host or cells: lungs of male guinea pigs (microsomes, 110,000 g pellet)
# Sequence (H0UT36 entry or part of it): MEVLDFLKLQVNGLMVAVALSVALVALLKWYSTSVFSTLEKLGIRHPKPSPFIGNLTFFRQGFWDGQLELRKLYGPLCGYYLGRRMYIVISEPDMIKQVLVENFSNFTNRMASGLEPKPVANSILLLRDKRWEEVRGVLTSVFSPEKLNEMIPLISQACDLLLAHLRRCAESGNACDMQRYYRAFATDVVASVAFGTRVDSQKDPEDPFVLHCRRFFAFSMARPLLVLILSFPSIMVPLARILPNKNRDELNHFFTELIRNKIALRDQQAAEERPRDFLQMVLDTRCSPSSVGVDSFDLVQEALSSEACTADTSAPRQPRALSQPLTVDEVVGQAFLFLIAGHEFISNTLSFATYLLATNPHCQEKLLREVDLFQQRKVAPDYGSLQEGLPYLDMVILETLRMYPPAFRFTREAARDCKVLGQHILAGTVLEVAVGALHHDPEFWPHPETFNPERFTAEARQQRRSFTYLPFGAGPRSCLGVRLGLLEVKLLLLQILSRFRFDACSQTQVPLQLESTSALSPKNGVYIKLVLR
# Test method notes: biochemical
# Experimental setup: enzyme source G = Guinea Pig Lung Microsomes; read-out: IC50

Sample records with IC50:
Cc1ccc2c(-c3ccccc3)nc(=O)n(C(C)C)c2c1 [reference compound]
> 1000 µM
CC(=O)c1ccc(-n2ccnc2)cc1 [1-[4-(1H--imidazol-1-yl)phenyl]ethanone, 1-[4-(1H-imidazol-1-yl)phenyl]ethanone]
1 to 10 µM
c1ccc(C(c2ccccc2)(c2ccccc2)n2ccnc2)cc1
10 to 100 µM
O=[N+]([O-])c1c[nH]cn1
> 1000 µM

Record CC(C)Oc1ccc2oc3ccc(C(=O)O)cc3c(=O)c2c1 . Reported IC50: > 1000 µM

----------
# Target: TXA2 Synthase
# Test method notes: TXA2 synthase IC50 as listed in Table I (enzyme source not stated)
# Protocol: Determination of Inhibition of Thromboxane Synthase Activity Isolation of Human Platelet Microsomes Assay for Thromboxane Synthase To a 12×75 mm tube containing [1-^14 C] PGH2 (2 μg, 0.01 μCi or 0.05 μCi) and inhibitor (1 mM final assay concentration, in 10 μl of ethanol) in 225 μl of phosphate buffer (0.1M, pH 7.5), was added to an aliquot of guinea pig lung microsomes (25 μl, containing 400 μg protein) or an aliquot of human platelet microsomes (25 μl, containing .congruent.130 g protein). […]
Reported endpoint: pIC50
Numbers only, as −log10 of the molar value.

Below, each entry is followed by its recorded pIC50 result.
CC(C)Oc1ccc(-n2ccnc2)cc1
5.00
CC(C)c1[nH]c2ccccc2c1C(=O)c1cccnc1
6.00
S=C(n1ccnc1)n1ccnc1
4.82
CC(=O)c1ccc(-n2ccnc2)cc1 [1-[4-(1H--imidazol-1-yl)phenyl]ethanone, 1-[4-(1H-imidazol-1-yl)phenyl]ethanone]
5.00
Oc1ccc(-n2ccnc2)cc1
6.00
c1ccc2c(Cn3ccnc3)c[nH]c2c1
6.00

# ---- query compound ----
Reported pIC50 ( c1c[nH]cn1 [1H--imidazole, reference compound] ) = 3.22

----------
Answer each item with its documented pIC50.
# Target: thromboxane synthase (Human Platelet Microsomes) (Homo sapiens)
# Construct: Platelets were obtained from 320 ml of whole blood and resuspended in 5.0 ml of Krebs-Hensleit buffer; from tissue; host or cells: human platelets (microsomes, 110,000 g pellet)
# Test method notes: Thromboxane synthase inhibition, human platelet microsomes
# Type: biochemical
# Experimental setup: enzyme source H = Human Platelet Microsomes; read-out: IC50
pIC50: −log10 of the molar value.

Would you mind listing pIC50 for each of the following compounds?
1. c1ccc2c(Cn3ccnc3)c[nH]c2c1 [3-(1H--imidazol-1-ylmethyl)-1H--indole, 3-(1H-imidazol-1-ylmethyl)-1H-indole]
2. CC(C)c1ccccc1-n1ccnc1
3. O=C(NN=Cc1c(O)ccc2ccccc12)c1cccnc1

Response given:
1: ~6.00; 2: ~6.00; 3: ~4.00

Give measured pIC50 for every item shown.
1. CC(=O)n1ccnc1 [1-acetyl-1H--imidazole]
2. CC(C)Oc1ccc2oc3ccc(C(=O)O)cc3c(=O)c2c1

Response given:
["~3.00", "< 3.00"]
